- Target Entity: human M1 receptor (Homo sapiens, UniProt P11229)
- Sequence (P11229 1-460): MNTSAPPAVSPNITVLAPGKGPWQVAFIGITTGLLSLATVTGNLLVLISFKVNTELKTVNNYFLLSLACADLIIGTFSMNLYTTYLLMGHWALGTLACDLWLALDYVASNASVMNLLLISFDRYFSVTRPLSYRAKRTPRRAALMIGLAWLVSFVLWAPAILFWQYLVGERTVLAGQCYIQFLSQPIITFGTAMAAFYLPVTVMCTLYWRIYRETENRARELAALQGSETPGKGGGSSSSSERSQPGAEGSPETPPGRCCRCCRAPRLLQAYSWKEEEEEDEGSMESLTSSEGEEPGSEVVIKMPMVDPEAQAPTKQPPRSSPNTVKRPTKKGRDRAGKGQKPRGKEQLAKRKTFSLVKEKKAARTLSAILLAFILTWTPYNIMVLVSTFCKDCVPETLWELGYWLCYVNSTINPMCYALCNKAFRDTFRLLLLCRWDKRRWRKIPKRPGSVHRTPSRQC
- Protocol Summary: In vitro functional assay of muscarinic acetylcholine receptor activity (aequorin calcium flux, reversal of EC80 acetylcholine response)
- Assay type: cell-based
- Cond: CHO-K1 cells stably expressing human M1 receptor with aequorin; acetylcholine at EC80; calcium flux (luminescence); read-out: M1 IC50
Give IC50 for every item shown.

Which value of IC50 has been reported for N#Cc1ccc(N2C3CCC2CN(C(=O)CCOCC2(c4ccccc4)CC2)C3)nc1 in the records?
100 to 1000 nM

// query: COc1ncc(F)c(C2(OCC(=O)N3CC4CCC(C3)N4c3ccc(C#N)cn3)CCC2)c1F
10 to 100 nM

// query: N#Cc1ccc(N2C3CCC2CN(C(=O)COC2(c4ccncc4)CC2)C3)nc1
100 to 1000 nM

// query: CC(SCCC(=O)N1CC2CCC(C1)N2c1ccc(C#N)cn1)c1ccc(F)cc1 (racemic)
1000 to 10000 nM

// query: N#Cc1cnc(N2[C@@H]3CC[C@H]2CN(C(=O)CCNC2(c4ccc(F)c(F)c4)CC2)C3)cn1
10 to 100 nM

// query: C[C@@H](OCC(=O)N1C[C@H]2CC[C@@H](C1)N2c1ccc(C#N)cn1)c1ccccc1
100 to 1000 nM

// query: N#Cc1ccc(N2C3CCC2CN(C(=O)CCNC(CO)c2ccc(F)cc2)C3)nc1 (centres unmarked) [Example 130]
> 1000 nM

// query: N#Cc1ccc(N2C3CCC2CN(C(=O)CCC(F)(F)c2cccc4ncnn24)C3)nc1
< 10 nM

----------
Give IC50 for every item shown.
- Target Entity: human M1 receptor (Homo sapiens, UniProt P11229)
- Protocol Summary: In vitro functional assay of muscarinic acetylcholine receptor activity (aequorin calcium flux, reversal of EC80 acetylcholine response)
- Type: cell-based
- Cond: CHO-K1 cells stably expressing human M1 receptor with aequorin; acetylcholine at EC80; calcium flux (luminescence); read-out: M1 IC50

Give the reported IC50 for CC(c1ccccc1)S(=O)(=O)CCC(=O)N1CC2CCC(C1)N2c1ccc(C#N)cn1 (racemic) (system: human M1 receptor (Homo sapiens, UniProt P11229)).
> 1000 nM

// query: N#Cc1ccc(N2C3CCC2CN(C(=O)COC2(c4cc(F)ccc4C#N)CC2)C3)nc1
100 to 1000 nM

// query: Cc1nn(C)c(C)c1C(C)OCC(=O)N1CC2CCC(C1)N2c1ccc(C#N)cn1 (racemic)
10 to 100 nM

// query: N#Cc1ccc(N2C3CCC2CN(C(=O)COC(c2cccc4ncnn24)C2CC2)C3)nc1 (racemic)
10 to 100 nM

// query: N#Cc1ccc(C2(NCC(=O)N3CC4CCC(C3)N4c3ccc(C#N)cn3)CC2)cc1
> 1000 nM

// query: Cc1ccc(N2C3CCC2CN(C(=O)CNC2(c4ccc(F)cc4F)CC2)C3)nn1
1000 to 10000 nM

// query: Cc1ccc(N2[C@@H]3CC[C@H]2CN(C(=O)CCNC2(c4ccc(F)c(F)c4)CC2)C3)nn1
10 to 100 nM

// query: N#Cc1ccc(N2[C@@H]3CC[C@H]2CN(C(=O)/C=C/C(F)(F)c2cccn4ncnc24)C3)nc1
< 10 nM
